Source: patent US9980949B2

ASSAY_PROCEDURE: Pharmacokinetics of SNS-595 in cancer patients
Type: in vivo, human
MEASUREMENT_PARAMETERS: human, intravenous, 3 mg/m2, plasma, dose 3 mg/m^2
READOUT_LABEL: C0 (ng/mL)
Write it as a number; the unit ng/mL goes unstated.

[Q] Give its C0 value. Item: CN[C@H]1CN(c2ccc3c(=O)c(C(=O)O)cn(-c4nccs4)c3n2)C[C@@H]1OC [SNS-595]
[A] 153

---

ASSAY_PROCEDURE: Pharmacokinetics of SNS-595 in cancer patients
Assay type: in vivo, human
MEASUREMENT_PARAMETERS: human, intravenous, 60 mg/m2, plasma, dose 60 mg/m^2
READOUT_LABEL: C0 (ng/mL)
Write it as a number; the unit ng/mL goes unstated.

[Q] Give its C0 value. Item: CN[C@H]1CN(c2ccc3c(=O)c(C(=O)O)cn(-c4nccs4)c3n2)C[C@@H]1OC [SNS-595]
[A] 4800

---

ASSAY_PROCEDURE: Pharmacokinetics of SNS-595 in cancer patients
Type: in vivo, human
MEASUREMENT_PARAMETERS: human, intravenous, 12 mg/m2, plasma, dose 12 mg/m^2
READOUT_LABEL: C0 (ng/mL)
Write it as a number; the unit ng/mL goes unstated.

[Q] Give its C0 value. Item: CN[C@H]1CN(c2ccc3c(=O)c(C(=O)O)cn(-c4nccs4)c3n2)C[C@@H]1OC
[A] 2890

---

ASSAY_PROCEDURE: Pharmacokinetics of SNS-595 in cancer patients
Type: in vivo, human
MEASUREMENT_PARAMETERS: human, intravenous, 24 mg/m2, plasma, dose 24 mg/m^2
READOUT_LABEL: C0 (ng/mL)
Write it as a number; the unit ng/mL goes unstated.

[Q] Give its C0 value. Item: CN[C@H]1CN(c2ccc3c(=O)c(C(=O)O)cn(-c4nccs4)c3n2)C[C@@H]1OC
[A] 2920

---

ASSAY_PROCEDURE: Pharmacokinetics of SNS-595 in cancer patients
Assay type: in vivo, human
MEASUREMENT_PARAMETERS: human, intravenous, 6 mg/m2, plasma, dose 6 mg/m^2
READOUT_LABEL: C0 (ng/mL)
Write it as a number; the unit ng/mL goes unstated.

[Q] Give its C0 value. Item: CN[C@H]1CN(c2ccc3c(=O)c(C(=O)O)cn(-c4nccs4)c3n2)C[C@@H]1OC [SNS-595]
[A] 377

---

ASSAY_PROCEDURE: Pharmacokinetics of SNS-595 in cancer patients
Type: in vivo, human
MEASUREMENT_PARAMETERS: human, intravenous, 48 mg/m2, plasma, dose 48 mg/m^2
READOUT_LABEL: C0
Write the quantity with the unit trailing the number.

[Q] Give its C0 value. Item: CN[C@H]1CN(c2ccc3c(=O)c(C(=O)O)cn(-c4nccs4)c3n2)C[C@@H]1OC
[A] 1980 ng/mL
